Reference for the values: patent US20250011330A1

MEASUREMENT TARGET: TDP1 (Homo sapiens (Human))
Sequence (Q9NUW8 whole entry): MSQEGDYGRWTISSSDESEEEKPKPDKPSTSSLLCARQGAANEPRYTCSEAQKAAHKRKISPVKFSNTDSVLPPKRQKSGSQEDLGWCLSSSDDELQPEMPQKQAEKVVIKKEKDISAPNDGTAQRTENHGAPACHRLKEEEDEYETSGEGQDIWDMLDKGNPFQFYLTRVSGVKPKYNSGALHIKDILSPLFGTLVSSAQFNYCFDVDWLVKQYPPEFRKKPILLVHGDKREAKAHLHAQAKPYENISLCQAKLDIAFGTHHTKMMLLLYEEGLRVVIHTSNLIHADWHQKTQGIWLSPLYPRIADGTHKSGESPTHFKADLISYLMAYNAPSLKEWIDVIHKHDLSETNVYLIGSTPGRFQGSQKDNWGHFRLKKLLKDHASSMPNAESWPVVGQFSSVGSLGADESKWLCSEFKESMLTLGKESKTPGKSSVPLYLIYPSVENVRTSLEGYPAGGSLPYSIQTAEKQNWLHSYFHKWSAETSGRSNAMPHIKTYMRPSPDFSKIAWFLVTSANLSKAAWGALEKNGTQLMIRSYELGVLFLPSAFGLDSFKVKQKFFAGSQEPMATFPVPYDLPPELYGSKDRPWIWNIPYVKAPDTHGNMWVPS
TEST METHOD NOTES: TDP1 gel-based in vitro fluorescence assay
Assay type: biochemical
TEST CONDITIONS: Table 9, fluorosulfates and sulfonyl fluorides; read-out: TDP1 IC50
Protocol: […] Gel images were scanned using a Typhoon FLA 9500 scanner (GE Healthcare) and densitometric analyses were performed using the ImageQuant software (GE Healthcare). The IC50 of TDP1 inhibitors was calculated by comparing the percentage of cleavage product (5′Cy5-[…]-p-3′) to DMSO control.
MEASURED QUANTITY: IC50

The molecule listed as O=C(O)c1ccc(Nc2c(-c3ccccc3)nc3ccc(OS(=O)(=O)F)cn23)cc1 [XZ732] shows IC50 equal to > 100 µM

Lab note: O=C(O)c1ccc(Nc2c(-c3cccc(OS(=O)(=O)F)c3)nc3cc(-c4ccccc4)ccn23)cc1 [XZ729] gave IC50 of > 100 µM

Value of IC50 reported for the molecule O=S(=O)(F)c1ccc(Nc2c(-c3ccccc3)nc3ccccn23)cc1 [XZ734] is > 100 µM

Just so you know, measured IC50 for O=C(O)c1ccc(Nc2c(-c3ccc(OS(=O)(=O)F)cc3)nc3cc(-c4ccccc4)ccn23)cc1 [XZ728] came out at > 100 µM

IC50 measured on O=C(O)c1ccc(N(c2c(-c3ccccc3OS(=O)(=O)F)nc3cc(-c4ccccc4)ccn23)S(=O)(=O)F)cc1 [XZ731] = 22.7 µM
